These entries and their values trace back to patent US20150307599A1.

molecular target: biotin-hPYY (human, N-terminal Biotin-Ahx-; C-terminal amide (-NH2)); experiment: BLI (ForteBio Blitz), biotinylated peptide on streptavidin sensor, scFv in solution
Sequence (peptide, as listed by the source): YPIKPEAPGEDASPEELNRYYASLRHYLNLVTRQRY
Here, each record is paired with measured Kd data.
Reply with just the number (in nM).

scFv-3 (human) (scFv, Human scFv from the Garvan-2 phage library; Whole entry used as named) scFv: EVQLLESGGGLVQPGGSLRLSCAASGFRFSDEDMGWVRQAPGKGLEWVSSIYGPSGSTYYADSVKGRFTISRDNSKNTLYLQMNSLRAEDTAVYYCAKDDVGTGTFDYWGQGTLVTVSSGGGGSGGGGSGGGGSTDIQMTQSPSSLSASVGDRVTITCRASQYIYYALNWYQQKPGKAPKLLIYDYSALQSGVPSRFSGSGSGTDFTLTISSLQPEDFATYYCQQSYYHPATFGQGTKVEIKR
1910

Then there is this binder:
Looking up h5E12 IGHV1-46/DPK9 scFv (humanized) (scFv, Humanized 5E12 scFv) scFv: QVQLVQSGAEVKKPGASVKVSCKASGYTFTNYWMHWVRQAPGQGLEWMGNIDPSNGGTNYNEKFKSRVTMTRDTSTSTVYMELSSLRSEDTAVYYCASFAYWGQGTLVTVSSGGGGSGGGGSGGGGSTDIQMTQSPSSLSASVGDRVTITCRASGNIHNYLAWYQQKPGKAPKLLIYNAKTLADGVPSRFSGSGSGTDFTLTISSLQPEDFATYYCQHFWSPPFTFGQGTKVEIKR , I found its Kd recorded as 1040
